Target: T1, TP-24 peptide (human, also: biotinylated, site not given here)
T1 construct: 15-mer of human TDP-43 from the library spanning aa 199-285; captured on streptavidin plates
T1 peptide: REFFSQYGDVMDVFI
Test: indirect ELISA, biotinylated 15-mer peptide on streptavidin plate, hybridoma supernatant
Where no end group is shown, it is not given here.
experimental readout: OD

Check out these entries, answers already filled in.
binder	endpoint result
ACI-7062-412A7-Ab1 (antibody, IgG2b, V domains shown, also called 412A7B7; clone 9) VH: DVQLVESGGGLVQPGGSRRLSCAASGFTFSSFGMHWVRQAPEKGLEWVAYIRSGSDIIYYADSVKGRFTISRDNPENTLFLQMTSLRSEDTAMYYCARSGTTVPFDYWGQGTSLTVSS VL: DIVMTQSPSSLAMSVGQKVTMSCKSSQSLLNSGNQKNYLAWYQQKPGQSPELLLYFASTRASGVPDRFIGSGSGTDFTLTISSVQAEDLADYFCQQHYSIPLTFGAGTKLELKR	4 O.D. (405 nm)
ACI-7062-416A11-Ab1 (antibody, IgG2a, V domains shown, also called 416A11B3; clone 18) VH: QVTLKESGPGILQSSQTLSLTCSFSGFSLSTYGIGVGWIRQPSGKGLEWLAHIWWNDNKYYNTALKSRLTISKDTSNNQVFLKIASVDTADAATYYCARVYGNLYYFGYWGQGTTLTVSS VL: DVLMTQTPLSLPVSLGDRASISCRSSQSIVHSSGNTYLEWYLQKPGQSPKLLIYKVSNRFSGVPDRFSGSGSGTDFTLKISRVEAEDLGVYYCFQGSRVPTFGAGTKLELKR	2.9 O.D. (405 nm)

What the record says about ACI-7062-401A2-Ab2 (antibody, IgG1, V domains shown, also called 401A2C6; clone 2) VH: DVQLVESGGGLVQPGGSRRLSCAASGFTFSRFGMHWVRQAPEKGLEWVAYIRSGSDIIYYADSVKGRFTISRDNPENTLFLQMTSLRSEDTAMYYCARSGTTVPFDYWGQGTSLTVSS VL: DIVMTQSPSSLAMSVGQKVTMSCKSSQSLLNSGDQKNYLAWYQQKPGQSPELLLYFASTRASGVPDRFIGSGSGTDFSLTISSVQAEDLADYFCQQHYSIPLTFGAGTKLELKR : OD is 2.5 O.D. (405 nm)

Query ACI-7062-412E12-Ab1 (antibody, IgG1, V domains shown, also called 412E12A2; clone 10) VH: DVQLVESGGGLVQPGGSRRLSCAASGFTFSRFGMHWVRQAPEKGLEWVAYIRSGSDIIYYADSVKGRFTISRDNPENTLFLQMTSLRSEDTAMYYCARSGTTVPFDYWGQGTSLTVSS VL: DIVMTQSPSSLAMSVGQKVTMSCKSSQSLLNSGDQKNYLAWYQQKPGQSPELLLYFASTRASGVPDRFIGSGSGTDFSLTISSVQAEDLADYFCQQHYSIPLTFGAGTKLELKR yields OD of 3.2 O.D. (405 nm)

These measurements were taken from patent US20220025023A1.
